Reference for the values: patent US7658917

system_under_test: natural β-amyloid peptide β-AP1-40 (human)
Sequence (peptide, as listed by the source): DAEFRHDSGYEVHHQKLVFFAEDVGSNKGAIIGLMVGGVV
test_name: cell-based or functional assay
* marks the point of attachment. Cholyl = C[C@H](CCC(=O)*)[C@H]1CC[C@H]2[C@@H]3[C@H](O)C[C@@H]4C[C@H](O)CC[C@]4(C)[C@H]3C[C@H](O)[C@]12C
% Inhibition of Plateau; nucleation assay; 33 mole % overview
The figure you give is taken to be in %; do not add the unit.

Reference set, count: 2
Cholyl-HDSGYEVHH-NH2 (SMILES CC(C)[C@H](NC(=O)[C@H](CCC(=O)O)NC(=O)[C@H](Cc1ccc(O)cc1)NC(=O)CNC(=O)[C@H](CO)NC(=O)[C@H](CC(=O)O)NC(=O)[C@H](Cc1c[nH]cn1)NC(=O)CC[C@@H](C)[C@H]1CC[C@H]2[C@@H]3[C@H](O)C[C@@H]4C[C@H](O)CC[C@]4(C)[C@H]3C[C@H](O)[C@]12C)C(=O)N[C@@H](Cc1c[nH]cn1)C(=O)N[C@@H](Cc1c[nH]cn1)C(N)=O) [cholyl-Aβ6-14-amide] : 29
Cholyl-HQKLVFF-OH (SMILES CC(C)C[C@H](NC(=O)[C@H](CCCCN)NC(=O)[C@H](CCC(N)=O)NC(=O)[C@H](Cc1c[nH]cn1)NC(=O)CC[C@@H](C)[C@H]1CC[C@H]2[C@@H]3[C@H](O)C[C@@H]4C[C@H](O)CC[C@]4(C)[C@H]3C[C@H](O)[C@]12C)C(=O)N[C@H](C(=O)N[C@@H](Cc1ccccc1)C(=O)N[C@@H](Cc1ccccc1)C(=O)O)C(C)C) [cholyl-Aβ14-20] : 49

Next binder, % Inhibition of Plateau; nucleation assay; 33 mole % to be filled in.
Problem: Consider the binder Cholyl-HDSGY-NH2 (SMILES C[C@H](CCC(=O)N[C@@H](Cc1c[nH]cn1)C(=O)N[C@@H](CC(=O)O)C(=O)N[C@@H](CO)C(=O)NCC(=O)N[C@@H](Cc1ccc(O)cc1)C(N)=O)[C@H]1CC[C@H]2[C@@H]3[C@H](O)C[C@@H]4C[C@H](O)CC[C@]4(C)[C@H]3C[C@H](O)[C@]12C) [cholyl-Aβ6-10-amide] and give its measured % Inhibition of Plateau; nucleation assay; 33 mole %.
Result: 13
